The following compounds are shown together with reported inhibition values.
Assay: H1N1 influenza NS1A inhibitors, functional cell based assay (AID 504329)
Conditions: percent inhibition, at 12.5 µM, stronger effect = higher value
The whole screen tested about 340,000 compounds, of which about 1,000 (0.29%) were called active. Not all results are given here. Results with a measured potency or affinity are listed apart.
readoutKind: inhibition (%)

INSERT INTO results (compound, readoutkind, numericresult) VALUES
  ('C/C(=N\NC(=O)c1ccn(C)n1)c1cccc(NC(=O)c2ccncc2)c1', 'inhibition', 10.3),
  ('CCC(C)[C@H](NC(=O)N1CCn2c1nc1ccccc12)C(=O)NCCc1ccccc1 (stereo partly specified)', 'inhibition', 4.3),
  ('O=C(CCCC(=O)Nc1ccc(Br)cc1)N/N=C/c1ccccc1', 'inhibition', -7.56),
  ('COCCN1C(=O)N[C@@H](c2ccccc2)[C@H](C(=O)OC)[C@H]1C', 'inhibition', -12.7),
  ('COc1ccc(C(=O)NCCNc2nc3ccc(C)cc3cc2C#N)cc1', 'inhibition', -6.86),
  ('CCc1nnc(NS(=O)(=O)c2ccc(N/C=C\C(=O)c3ccc(C)cc3)cc2)s1', 'inhibition', 2.79),
  ('NC1=NC(=O)/C(=C/C=C/c2cccs2)S1', 'inhibition', -14.1),
  ('Cc1cccc(NC(=S)NC2CC3CCCC(C2)N3CC(C)C)c1 (stereo unspecified)', 'inhibition', -0.58),
  ('O=C(COc1ccc(Cl)cc1)NC1CCSC1=O (stereo unspecified)', 'inhibition', -5.86),
  ('COc1ccc(/C=C/C=C2\N=C(SC)SC2=O)cc1', 'inhibition', 18),
  ('Cc1ccc(OCCNC(=O)C2CC(=O)N(Cc3ccccc3)C2)cc1 (stereo unspecified)', 'inhibition', 4.88);
